Property: melting point; scope: individual compounds
quantity.measured: melting point

* N=C1C2CC(F)CN2C(=O)CN1C1CCC(Cn2cncn2)C1 (stereo not given) | 158 to 162 °C
* COc1ccc(S(=O)(=O)N2C(=O)C(OC(=O)Oc3ccccc3)(c3ccccc3C(F)(F)F)c3cc(Cl)ccc32)c(OC)c1 (stereo not given) | 191 °C
* CCOCc1nc2c(N)nc3cc(-c4cccc(NS(C)(=O)=O)c4)cnc3c2n1CC(C)(C)F | 208 to 209 °C
* Nc1ccc(OCC(F)(F)F)cc1[N+](=O)[O-] | 84 to 85 °C
* CCCCCCCCCCCCCCCCNS(=O)(=O)c1ccc(Cl)c([N+](=O)[O-])c1 | 91 to 93 °C
* CCOc1ccc(-c2nc(Cn3cccc3C(C)=O)cs2)cc1OCC | 123 to 124 °C
* CNc1ccc(C(=O)Nc2c(C)cccc2C)cn1 | 207 to 209 °C
* CN1Cc2c(-c3nnc(CCl)o3)ncn2-c2cccc(Cl)c2C1=O | 201 to 203 °C
* Clc1ccc(C2(c3ccc4noc(-c5ccccc5)c4c3)OCCO2)cc1 | 143 °C
* CC(C)COC(=O)COC(=O)CON1CC(NC(=O)OCc2ccccc2)C1=O (stereo not given) | 90 to 92 °C
* CON=C(C(=O)O)c1csc(NC(=O)CCl)n1 | 182 to 183 °C
* COC(=O)c1cc(O)nn1Cc1ccccc1 | 82 to 84 °C
* CCc1nc2c(N)nc3ccccc3c2n1CCOCCN | 144 to 146 °C
* CCCOC12CCC(=O)C3(C)Oc4c(O)ccc5c4C31CCN(CC1CC1)C2C5 (stereo not given) | 184 to 186 °C
* C#CCN(C)c1nc(C(=O)N(C)C)cs1 | 99 to 100 °C
* Cc1c(C)c2c(c(C)c1N)OC(C)(C)C2c1ccc(C(C)C)cc1 (stereo not given) | 120 to 121 °C
* COc1ccc(Cl)c(Oc2c(Cl)ncnc2NS(=O)(=O)c2ccc(C(C)C)cn2)c1 | 174 to 175 °C
* Cc1c(C)c2c(c(C)c1NC(=O)C(C)C)CC(C)(C)O2 | 136 to 138 °C
* Nc1c(Cl)cc(C(O)CNCCCCCOCCc2cc3ccccc3o2)cc1Cl (stereo not given) | 49 to 52 °C
* O=C1CCOC(N2CCN=C(c3ccccc3Cl)c3cc(Cl)ccc32)=N1 | 124 to 135 °C
